Test system: Escherichia coli
run.description: Antibacterial activity against Escherichia coli ATCC 25922 by broth microdilution assay
Assay type: functional
Recorded measurements of MIC, one per entry
Your answer should be a plain number; it is taken to be in µg/mL.

Use the examples below as a reference point.
INSERT INTO measurements (smiles_str, test_result) VALUES
  ('CC(=O)Nc1ccc(S(=O)(=O)Cc2nnc(SCCF)o2)cc1', 64),
  ('CC(=O)Nc1ccc(S(=O)(=O)Cc2nnc(S)o2)cc1', 256),
  ('CC(=O)Nc1ccc(S(=O)(=O)Cc2nnc(SCc3ccc(Cl)cc3Cl)o2)cc1', 64),
  ('CCCCSc1nnc(CS(=O)(=O)c2ccc(NC(C)=O)cc2)o1', 256),
  ('CC(=O)Nc1ccc(S(=O)(=O)Cc2nnc(SCC#N)o2)cc1', 256);

Fill in the blank: the reported MIC of `CC(=O)Nc1ccc(S(=O)(=O)Cc2nnc(SCC(=O)O)o2)cc1` is ____.
128

Fill in the blank: the reported MIC of `C=CCSc1nnc(CS(=O)(=O)c2ccc(NC(C)=O)cc2)o1` is ____.
256

Fill in the blank: the reported MIC of `CC(=O)Nc1ccc(S(=O)(=O)Cc2nnc(SCc3ccc(F)cc3F)o2)cc1` is ____.
128

Fill in the blank: the reported MIC of `C#CCSc1nnc(CS(=O)(=O)c2ccc(NC(C)=O)cc2)o1` is ____.
128

Fill in the blank: the reported MIC of `CCOC(=O)CSc1nnc(CS(=O)(=O)c2ccc(NC(C)=O)cc2)o1` is ____.
128

Fill in the blank: the reported MIC of `CCCCCCCCCCCCSc1nnc(CS(=O)(=O)c2ccc(NC(C)=O)cc2)o1` is ____.
256

Fill in the blank: the reported MIC of `CCn1cc(C(=O)O)c(=O)c2cc(F)c(N3CCNCC3)cc21` is ____.
8

Fill in the blank: the reported MIC of `CC(=O)Nc1ccc(S(=O)(=O)Cc2nnc(SCC3CC3)o2)cc1` is ____.
128

Fill in the blank: the reported MIC of `CCCCCCSc1nnc(CS(=O)(=O)c2ccc(NC(C)=O)cc2)o1` is ____.
128

Fill in the blank: the reported MIC of `CC(=O)CSc1nnc(CS(=O)(=O)c2ccc(NC(C)=O)cc2)o1` is ____.
64

Fill in the blank: the reported MIC of `CCN(CC)CCSc1nnc(CS(=O)(=O)c2ccc(NC(C)=O)cc2)o1` is ____.
128

Fill in the blank: the reported MIC of `CC(=O)Nc1ccc(S(=O)(=O)Cc2nnc(SCCO)o2)cc1` is ____.
64

----------
Test system: Klebsiella pneumoniae
run.description: Antibacterial activity against Klebsiella pneumonia by broth microdilution assay
Format: functional
quantity.measured: MIC (µg/mL)
Your answer should be a plain number; it is taken to be in µg/mL.

Use the examples below as a reference point.
INSERT INTO measurements (smiles_str, test_result) VALUES
  ('CCCCCCCCCCCCSc1nnc(CS(=O)(=O)c2ccc(NC(C)=O)cc2)o1', 64),
  ('CCn1cc(C(=O)O)c(=O)c2cc(F)c(N3CCNCC3)cc21', 16),
  ('CCN(CC)CCSc1nnc(CS(=O)(=O)c2ccc(NC(C)=O)cc2)o1', 128),
  ('CCCCCCSc1nnc(CS(=O)(=O)c2ccc(NC(C)=O)cc2)o1', 8);

Fill in the blank: the reported MIC of `CC(=O)Nc1ccc(S(=O)(=O)Cc2nnc(S)o2)cc1` is ____.
256

Fill in the blank: the reported MIC of `C=CCSc1nnc(CS(=O)(=O)c2ccc(NC(C)=O)cc2)o1` is ____.
256

Fill in the blank: the reported MIC of `CC(=O)Nc1ccc(S(=O)(=O)Cc2nnc(SCC3CC3)o2)cc1` is ____.
128

Fill in the blank: the reported MIC of `CC(=O)Nc1ccc(S(=O)(=O)Cc2nnc(SCCO)o2)cc1` is ____.
16

Fill in the blank: the reported MIC of `CC(=O)Nc1ccc(S(=O)(=O)Cc2nnc(SCc3ccc(F)cc3F)o2)cc1` is ____.
128

Fill in the blank: the reported MIC of `CC(=O)Nc1ccc(S(=O)(=O)Cc2nnc(SCCF)o2)cc1` is ____.
32

Fill in the blank: the reported MIC of `C#CCSc1nnc(CS(=O)(=O)c2ccc(NC(C)=O)cc2)o1` is ____.
256

Fill in the blank: the reported MIC of `CC(=O)CSc1nnc(CS(=O)(=O)c2ccc(NC(C)=O)cc2)o1` is ____.
16

Fill in the blank: the reported MIC of `CC(=O)Nc1ccc(S(=O)(=O)Cc2nnc(SCC#N)o2)cc1` is ____.
256
